Would you mind telling me the reported pIC50 of each entry?
biological target: p99 AmpC β-lactamase (Enterobacter cloacae, UniProt P05364); construct: expressed as native untagged proteins; made in house; host or cells: E. coli BL21(DE3); assay: β-lactamase enzyme inhibition assay (nitrocefin substrate), P99 AmpC; type: biochemical; conditions: nitrocefin 100 μM, 37° C., PBS pH 7.0; read-out: P99 AmpC IC50
Sequence (P05364 21-381): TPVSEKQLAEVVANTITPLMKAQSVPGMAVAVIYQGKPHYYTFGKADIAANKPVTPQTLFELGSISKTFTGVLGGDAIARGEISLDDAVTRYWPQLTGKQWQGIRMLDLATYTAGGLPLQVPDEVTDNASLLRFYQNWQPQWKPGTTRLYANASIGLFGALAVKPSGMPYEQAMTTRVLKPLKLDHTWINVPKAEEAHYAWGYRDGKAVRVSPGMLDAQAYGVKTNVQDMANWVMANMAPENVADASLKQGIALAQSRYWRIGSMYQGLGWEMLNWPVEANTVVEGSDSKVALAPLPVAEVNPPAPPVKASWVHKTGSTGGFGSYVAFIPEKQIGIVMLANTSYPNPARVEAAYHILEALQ
Counter-ions that a name gives are not always drawn.
Scale for pIC50: -log10 of concentration given in mol/L; no unit attached.

## Task # get_value(readout='pIC50', item= O=C(N[C@@H](Cc1cccc(C(=O)O)c1O)B(O)O)c1cccc(CNc2nccs2)c1 )
## Result 9.22

## Task Which measured pIC50 value corresponds to Cl.O=C(N[C@@H](Cc1cccc(C(=O)O)c1O)B(O)O)c1ccc(CNCCO)cc1 [Example 16, hydrochloride] ?
## Result 8.22

## Task Any idea what pIC50 was measured for Cl.NCc1ccc(C(=O)N[C@@H](Cc2cccc(C(=O)O)c2O)B(O)O)cc1 [Example 2, hydrochloride] ?
## Result 8.52

## Task Look up pIC50: CCNCc1ccc(C(=O)N[C@@H](Cc2cccc(C(=O)O)c2O)B(O)O)cc1.Cl [Example 6, Hydrochloride]
## Result 9.00

## Task Look up pIC50 for this compound: C/C(=N/O)C(=O)N[C@@H](Cc1cccc(C(=O)O)c1O)B(O)O
## Result 8.70

## Task Entry NCc1ccc(CC(=O)N[C@@H](Cc2cccc(C(=O)O)c2O)B(O)O)cc1 : reported pIC50 = ?
## Result 7.92

## Task Any idea what its pIC50 is? The compound is O=C(N[C@@H](Cc1cccc(C(=O)O)c1O)B(O)O)c1cccc(CNCCCO)c1
## Result 9.05

## Task Report pIC50 for CC(C)(O/N=C(\C(=O)N[C@@H](Cc1cccc(C(=O)O)c1O)B(O)O)c1csc(NC(=O)CN)n1)C(=O)O.Cl [Example 50, hydrochloride] please.
## Result 7.64

## Task Quick one: pIC50 for N=C(N)c1ccc(CC(=O)N[C@@H](Cc2cccc(C(=O)O)c2O)B(O)O)cc1 [Example 62, formate salt] ?
## Result 8.52

## Task Value lookup for pIC50; key = N=C(N)NCc1ccc(CC(=O)N[C@@H](Cc2cccc(C(=O)O)c2O)B(O)O)cc1 [Example 61, formate salt]
## Result 7.96

## Task What value of pIC50 has been reported for the following compound? CNCc1ccc(CC(=O)N[C@@H](Cc2cccc(C(=O)O)c2O)B(O)O)cc1
## Result 8.15

## Task // lookup pIC50 for Cl.NCc1cc(CC(=O)N[C@@H](Cc2cccc(C(=O)O)c2O)B(O)O)ccn1 [Example 63, hydrochloride]
## Result 8.05

## Task Would you kindly share the measured pIC50 for CNCc1ccc(C(=O)N[C@@H](Cc2cccc(C(=O)O)c2O)B(O)O)cc1.Cl [Example 11, hydrochloride] ?
## Result 9.00

## Task Recorded pIC50 for O=C(N[C@@H](Cc1cccc(C(=O)O)c1O)B(O)O)c1ccc(CN2CCOCC2)cc1 , please?
## Result 8.52

## Task Using the record for CN(C)Cc1ccc(C(=O)N[C@@H](Cc2cccc(C(=O)O)c2O)B(O)O)cc1 [Example 4, formate salt] , report its pIC50.
## Result 8.52

## Task pIC50 lookup needed for Cc1cc(NCc2cccc(C(=O)N[C@@H](Cc3cccc(C(=O)O)c3O)B(O)O)c2)no1 , thanks.
## Result 9.70

## Task State the recorded pIC50 for this entry: NCc1cccc(CC(=O)N[C@@H](Cc2cccc(C(=O)O)c2O)B(O)O)c1
## Result 8.22

## Task Entry Cl.O=C(N[C@@H](Cc1cccc(C(=O)O)c1O)B(O)O)c1ccc(CN2CCCC(C(=O)O)C2)cc1 (stereo partly drawn) [Example 12, hydrochloride] : reported pIC50 = ?
## Result 6.05

## Task What value of pIC50 has been recorded for this entry: Cl.Nc1cncc(C(=O)N[C@@H](Cc2cccc(C(=O)O)c2O)B(O)O)c1 [Example 44, hydrochloride]
## Result 9.00

## Task Fill in: pIC50 of CNCc1cccc(C(=O)N[C@@H](Cc2cccc(C(=O)O)c2O)B(O)O)c1 is ___
## Result 8.70

## Task What value of pIC50 has been reported for the following compound? O=C(Cc1ccc(CNC(CO)C(=O)O)cc1)N[C@@H](Cc1cccc(C(=O)O)c1O)B(O)O (stereo partly drawn)
## Result 8.05
